biological target: Gal(a1-3)Gal(b1-4)GlcNAc(b1-6)GalNAc; test: glycan array binding signal (z-score within array); higher = stronger binding; conditions: glycan notation: IUPAC condensed, linker removed
This excerpt belongs to a sample that is enriched for the strongest signals.
Property Label: glycan array binding signal (z-score)
Reply with the value as a number alone.

{"Binder": "DC-ASGPR S+GEE (Homo sapiens) (protein) MTRTYENFQYLENKVKVQGFKNGPLPLQSLLQRLRSGPCHLLLSLGLGLLLLVIICVVGFQNSKFQRDLVTLRTDFSNFTSNTVAEIQALTSQGSSLEETIASLKAEVEGFKQERQAVHSEMLLRVQQLVQDLKKLTCQVATINNNGEEASTEGTCCPVNWVEHQDSCYWFSHSGMSWAEAEKYCQLKNAHLVVINSREEQNFVQKYLGSAYTWMGLSDPEGAWKWVDGTDYATGFQNWKPGQPDDWQGHGLGGGEDCAHFHPDGRWNDDVCQRPYHWVCEAGLGQTSQESH", "glycan array binding signal (z-score)": 3.92}

Now, please, on to the next binder.
[ask] Tell me the measured glycan array binding signal (z-score) of Mermaid1 (Stilbonema majum) (protein) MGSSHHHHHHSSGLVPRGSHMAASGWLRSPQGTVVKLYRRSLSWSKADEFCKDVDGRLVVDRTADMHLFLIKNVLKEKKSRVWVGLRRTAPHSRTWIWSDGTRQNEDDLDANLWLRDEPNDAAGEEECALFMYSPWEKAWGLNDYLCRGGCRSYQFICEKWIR , please.
[reply] -0.176
